This listing pairs molecules with measured pIC50.
Test system: SKOV3 cells
Test: CCK-8 cytotoxicity assay, SKOV3
Type: cell-based, human
Details: CCK-8, 24 h
pIC50 is defined as minus the log10 of a concentration measured in mol/L.

CC1(C)C[C@@H](O)C[C@@]2(C)OC(=O)C=C12 [Compound 12, (-)-loliolide]	4.97

pIC50 in this record for CC(=O)/C=C/[C@@]1(O)C(C)=CC(=O)CC1(C)C [Compound 11, (6S)-dehydrovomifoliol] : 4.97

----------
Test: Cytotoxicity (CC50) in HEK-Blue IL-6 cells
Type: cell-based
Details: human, from extrapolated concentration-response curves
Please note: CC50 at 24 h exactly at 10 µM is criterion not met. Only values below 10 µM get criterion met.

COc1ccc(C[C@H]2COC(=O)[C@@H]2Cc2ccc(OC)c(OC)c2)cc1OC [Compound 4, (-)-dimethylmatairesinol]	criterion not met
COc1ccc(CC2=C(Cc3ccc4c(c3)OCO4)C(=O)NC2OC)cc1OC (stereo not drawn) [Compound 3, piperimide III]	criterion not met
Cc1c(-c2ccc(O)cc2)n(Cc2ccc(OCCN3CCCCCC3)cc2)c2ccc(O)cc12 [Bazedoxifene, bazedoxifene, reference compound]	criterion met
O=c1cc(-c2ccc(O)cc2)oc2c(C3OC(CO)C(O)C(O)C3OC3OCC(O)(CO)C3O)c(O)cc(O)c12 (stereo not drawn) [Compound 17, ficuflavoside]	criterion not met
CC1(C)C[C@@H](O)C[C@@]2(C)OC(=O)C=C12 [Compound 12, (-)-loliolide]	criterion not met

Next compound, please.
Task item: Is 10 µM strictly greater than the compound's reported CC50 at 24 h? compound: CC(=O)/C=C/[C@@]1(O)C(C)=CC(=O)CC1(C)C [Compound 11, (6S)-dehydrovomifoliol]
Reply: criterion not met

----------
Tested on: cisplatin-resistant A2780 (A2780-cis) cells
Experiment: CCK-8 cytotoxicity assay, A2780-cis
Format: cell-based
Settings: Homo sapiens, A2780cis, CCK-8, 24 h
Entries and their IC50
Give the value, in units of µM, as a plain number.

As a guide, the following entries are already answered.
CC1(C)C[C@@H](O)C[C@@]2(C)OC(=O)C=C12 [Compound 12, (-)-loliolide]	16.6
COc1ccc(CC2=C(Cc3ccc4c(c3)OCO4)C(=O)NC2OC)cc1OC (stereo not drawn) [Compound 3, piperimide III]	40.5
O=c1cc(-c2ccc(O)cc2)oc2c(C3OC(CO)C(O)C(O)C3OC3OCC(O)(CO)C3O)c(O)cc(O)c12 (stereo not drawn) [Compound 17, ficuflavoside]	41
CC(=O)/C=C/[C@@]1(O)C(C)=CC(=O)CC1(C)C [Compound 11, (6S)-dehydrovomifoliol]	14.4
COc1ccc(C[C@H]2COC(=O)[C@@H]2Cc2ccc(OC)c(OC)c2)cc1OC [Compound 4, (-)-dimethylmatairesinol]	16.9

Please find the next compound below.
Fill in: cisplatin-resistant A2780 (A2780-cis) cells IC50 for Cc1c(-c2ccc(O)cc2)n(Cc2ccc(OCCN3CCCCCC3)cc2)c2ccc(O)cc12 [Bazedoxifene, bazedoxifene, reference compound] = 33.8

Where these numbers come from: paper PMC11242996
